The values you see were collected from paper PMC11259170.

Quick reference for pEC50 among some compounds
Target: mGPR65 (Mus musculus, UniProt Q61038)
Construct: expressed in transfected cells; host or cells: HeLa (ATCC CCL-2), lentiviral transduction, pLX317
Sequence (Q61038 whole entry): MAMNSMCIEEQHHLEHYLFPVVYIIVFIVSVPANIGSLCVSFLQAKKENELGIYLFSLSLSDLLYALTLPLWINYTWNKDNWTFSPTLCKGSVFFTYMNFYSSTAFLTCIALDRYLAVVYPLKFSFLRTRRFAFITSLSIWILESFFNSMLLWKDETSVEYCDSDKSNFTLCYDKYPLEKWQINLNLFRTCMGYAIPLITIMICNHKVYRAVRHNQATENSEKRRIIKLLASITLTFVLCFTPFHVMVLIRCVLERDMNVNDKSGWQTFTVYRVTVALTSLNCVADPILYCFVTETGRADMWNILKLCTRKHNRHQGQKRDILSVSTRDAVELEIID
Experiment: cAMP detection in HeLa expression cell line, mGPR65
Assay type: cell-based
Settings: 2nd mGPR column pair; NA = no activity; read-out: mGPR EC50
Would you please state pEC50, meaning minus log10 of the concentration in mol/L, as a bare number?

# COMPOUND, pEC50
records = [
    ("Cc1ccc(NC(=O)c2cnn3c(O)cc(-c4ccc(C(=O)N(C)C)cc4)nc23)cc1", 5.79),
    ("COc1cccc(Cc2cc(O)n3ncc(C(=O)Nc4ccc(C)cc4)c3n2)c1", 5.66),
    ("Cc1cnc(NC(=O)c2cnn3c(O)cc(-c4ccc(COC(C)C)cc4)nc23)nc1", 5.74),
]

Consider the record given below.
Q) What does the record list as pEC50 for CN1N=C(SCc2ccc(Cl)cc2Cl)Sc2c1cnn(C)c2=O [BTB09089, reference compound] ?
A) 6.34
